Values were extracted from paper PMC7763008.

system: Colo 205 human colonic adenocarcinoma cell line (doxorubicin-sensitive); test: MTT antiproliferative activity assay, Colo 205; assay type: cell-based; settings: 5 × 10^3 cells/well
pIC50: −log10 of the molar value.
pIC50: recorded values
observed_property: pIC50

compound: COc1ccc(-c2oc3ccccc3c(=O)c2CC(S(=O)(=O)C(F)(F)F)S(=O)(=O)C(F)(F)F)cc1 [Compound 1]
measured: < 4.00

compound: COc1cccc2c1C(=O)c1c(O)c3c(c(O)c1C2=O)C[C@@](O)(C(=O)CO)C[C@@H]3O[C@H]1C[C@H](N)[C@H](O)[C@H](C)O1 [DOXO, Doxorubicin, reference compound]
measured: 6.62

compound: COc1ccc(-c2sc3ccccc3c(=O)c2CC(S(=O)(=O)C(F)(F)F)S(=O)(=O)C(F)(F)F)cc1 [Compound 2]
measured: < 4.00

compound: COc1ccc2cc(-c3oc4ccccc4c(=O)c3CC(S(=O)(=O)C(F)(F)F)S(=O)(=O)C(F)(F)F)ccc2c1 [Compound 4]
measured: < 4.00
